Where do the numbers come from? From PubChem BioAssay AID1852.

experiment: TNF-a-driven NF-kB reporter inhibitors, primary screen, selectivity assay for NOD1/NOD2 signaling inhibitor project, cell-based, HEK293T NF-kB-Luc, luminescence (AID 1852); conditions: TNF-a induced, 14 h, at 4 µM, hits give high values
Screen size: about 2,500 compounds; about 1,100 (44%) were called active. The set was probably picked from earlier hits. Some of the results follow.
Listed below: inhibition values for each entry.
Kindly answer with a numeric value in %, unit omitted.

O=C(CN1CCCCCC1)Nc1ccc(Br)cn1: -21.9

Exam item: // lookup inhibition for O=C(N/N=C/c1c(O)ccc2ccccc12)c1ccc(Br)o1
Marked response: 34.2

Exam item: I am curious: what inhibition value has been reported for COC(CN(C(=O)CCl)C(C(=O)NC1CCCCC1)c1ccccc1C)OC (stereo unspecified) ?
Marked response: 63.2

Exam item: # inhibition lookup, item COc1cc(NC(=O)c2cc3ccccc3cc2O)c(OC)cc1Cl
Marked response: 47.5

Exam item: What measured inhibition goes with Cc1ccc(NC(=O)/C=C/c2ccc([N+](=O)[O-])s2)c(C)c1 ?
Marked response: 100

Exam item: Report inhibition for O=C(N/N=C/c1c(O)ccc2ccccc12)c1ccc(CO)nc1 please.
Marked response: 96.6

Exam item: Requested field: inhibition. Item: COCCN(C(=O)CCl)C(C(=O)NC1CCCCC1)c1ccccc1C (stereo unspecified)
Marked response: 56.7

Exam item: // query inhibition value for entry COc1ccccc1NC(=O)c1cc2cc(Br)ccc2cc1O
Marked response: 82.6

Exam item: Fill in: inhibition of Cn1nccc1C(=O)N/N=C/c1c(O)ccc2ccccc12 is ___
Marked response: 66.6

Exam item: Consider the molecule CN(C(=O)/C=C/c1ccc([N+](=O)[O-])s1)c1ccccc1 and give its measured inhibition.
Marked response: 37.1

Exam item: Looking for the measured inhibition of COC(CN(C(=O)CCl)C(C(=O)NC1CCCC(C)C1C)c1ccc(C)cc1)OC (stereo unspecified) , can you help?
Marked response: 15.4
